Test system: HL-60(TB) leukemia
protocol.description: NCI tumour cell line growth inhibition, 48 h
Let's look at some compounds and their measured TGI.
endpoint.name: TGI

• COC(CNC(=O)C(C)NC(=O)/C=C/c1ccccc1)OC (stereo not drawn) = > 100 µM
• O=C(O)CCC(NC(=O)c1ccc(Nc2nc3cc(C(F)(F)F)ccc3nc2-c2ccccc2)cc1)C(=O)O (stereo not drawn) = > 100 µM
• OC1C#CCSCC#C/C=C\1 (stereo not drawn) = 71.8 µM

----------
System: A549 NSCLC
protocol.description: NCI tumour cell line growth inhibition, 48 h
endpoint.name: TGI

* c1ccc(CCNc2ccccn2)nc1 | > 100 µM
* COc1ccc2c(c1)C(=O)c1c-2c(N2CCN(C(=O)CNCCNCCO)CC2)nc2ccccc12 | 24.3 µM
* CC1OC(OC2C(O)COC(OC3C(C)OC(OC4C(OC(=O)[C@]56CCC(C)(C)C[C@@H]5C5=CCC7[C@@]8(C)C[C@H](O)[C@H](OC9OC(CO)C(O)C(O)C9O)[C@@](C)(CO)[C@@H]8CC[C@@]7(C)[C@]5(C)CC6)OCC(O)C4O)C(O)C3OC3OCC(O)(CO)C3O)C2O)C(O)C(O)C1O (stereo partly drawn) | 18 µM
* N#Cc1c(N)n(-c2cccc(C(=O)O)c2)c(=O)c2cc([N+](=O)[O-])ccc12 | > 100 µM
* COc1ccc(NC(=O)/C(Cc2cc(=O)oc3cc(O)ccc23)=N\NC(C)(C)C)c(OC)c1 | > 100 µM
* CCOC(=O)C12OC(CCC1=O)C(C(=O)OC)=C2C(=O)OC (stereo not drawn) | > 10 µM
* CCCN1C(=O)N(CCC)C2C1NC(=S)N2/N=C/C=C/c1ccccc1OC (stereo not drawn) | > 100 µM
* Cc1cc2oc(=N)c(C#N)c(C)c2cc1C | > 100 µM
